B1: Ankyrin-3, residues 4094 to 4171; numbered along this chain, Q12955 (parent)
chain: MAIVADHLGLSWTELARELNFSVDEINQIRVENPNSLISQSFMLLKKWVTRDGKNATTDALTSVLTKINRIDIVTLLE

Variants of: B1
Experiment: abundance fitness (aPCA) (normalised: wild type 0, dead -1); higher = more abundant; growth selection in yeast, the domain comes from the species named
Conditions: Homo sapiens
endpoint-label: abundance fitness

variant-identifier | endpoint-label | experimental-value
T13G | abundance fitness | -0.417
V64P | abundance fitness | 0.037
M43R | abundance fitness | -0.128
R70A | abundance fitness | -0.918
M43S | abundance fitness | 0.005
R17G | abundance fitness | -0.163
T62P | abundance fitness | -0.102
N55W | abundance fitness | -0.135
G53K | abundance fitness | -0.145
L76A | abundance fitness | 0.08
V64Y | abundance fitness | -0.166
E78M | abundance fitness | -0.211
T13I | abundance fitness | -0.02
L65A | abundance fitness | -1.14
K54T | abundance fitness | -0.121
N35D | abundance fitness | -0.053
D6R | abundance fitness | -0.163
I29S | abundance fitness | -0.846
L65H | abundance fitness | -0.973
V31C | abundance fitness | 0.049
M43A | abundance fitness | 0.047
K46L | abundance fitness | -0.377
S41F | abundance fitness | -0.815
V64Q | abundance fitness | 0.064
P34S | abundance fitness | -0.145
F42Y | abundance fitness | 0.023
V31D | abundance fitness | 0.058
I71K | abundance fitness | 0.057
I73L | abundance fitness | -0.148
V74M | abundance fitness | -0.749
R30A | abundance fitness | -0.022
A2C | abundance fitness | -0.077
D59P | abundance fitness | -0.058
F21M | abundance fitness | -0.561
A2F | abundance fitness | -0.035
N20E | abundance fitness | -0.101
K47P | abundance fitness | -0.956
A60G | abundance fitness | -0.233
N27Y | abundance fitness | -0.149
T58P | abundance fitness | -0.195

Values from the Human Domainome abundance scans (Beltran et al. 2025)
